- System: SK-MEL-5 CDK2 mRNA, RT-qPCR delta-delta-Ct, overnight
- assay-summary: CDK2 transcript decrease in melanoma cells – cell-based, SK-MEL-5, RT-qPCR, dry powder samples, orthogonal assay for MITF inhibitor project, dose response (AID 651772)
Records with an inconclusive call do not appear.
What AC40 was measured for each of the following?

Solved entries (count: 10):
NC1=CC(=O)c2ccccc2C1=O
0.3 µM
COC1=C(NS(=O)(=O)c2ccccc2)C(=O)c2ccccc2C1=O
3.5 µM
O=C1C(Nc2ccccc2)=C(c2ccccc2)C(=O)c2ccccc21
7.06 µM
NC1=C(NS(=O)(=O)c2cccs2)C(=O)c2ccccc2C1=O
1.98 µM
Cc1nc2ccccc2n1/N=C/c1ccc([N+](=O)[O-])s1
2.92 µM
CCN1CCN(C2=C(NC(=O)c3ccccc3)C(=O)c3ccccc3C2=O)CC1
2.41 µM
NC1=C(NS(=O)(=O)c2ccc(Br)cc2)C(=O)c2ccccc2C1=O
9.61 µM
C=CCNC1=C(Cl)C(=O)c2ccccc2C1=O
1.46 µM
CN1CCN(C2=C(NS(=O)(=O)c3ccc(Br)s3)C(=O)c3ccccc3C2=O)CC1
7.94 µM
O=C1C=C(NS(=O)(=O)c2ccc(Br)cc2)C(=O)c2ccccc21
0.358 µM

// each compound listed below needs its AC40
1. O=C1C(Nc2ccc(Cl)cc2)=C(N2CCCC2)C(=O)c2ccccc21
2. NC1=C(NS(=O)(=O)c2ccccc2)C(=O)c2ccccc2C1=O

Reply:
9.91 µM
4.39 µM

---

Kindly state AC40 for each of the entries shown.
- System: SK-MEL-5 CDK2 mRNA, RT-qPCR delta-delta-Ct, overnight
- assay-summary: CDK2 transcript decrease in melanoma cells – cell-based, SK-MEL-5, RT-qPCR, dry powder samples, orthogonal assay for MITF inhibitor project, dose response (AID 651772)
Inconclusive results are not listed.

NC1=C(NC(=O)c2ccccc2)C(=O)c2ccccc2C1=O
882 nM
NS(=O)(=O)c1ccc(NC2=CC(=O)c3ccccc3C2=O)cc1
141 nM
CC(C)N1CCN(C2=C(Nc3ccc(F)cc3F)C(=O)c3ccccc3C2=O)CC1
1770 nM

// each compound listed below needs its AC40
1. CCN1CCN(C2=C(Nc3ccc(F)cc3F)C(=O)c3ccccc3C2=O)CC1
2. COC1=C(Nc2ccccc2)C(=O)c2ccccc2C1=O
3. O=C1C=C(Nc2ccc([N+](=O)[O-])c(C(F)(F)F)c2)C(=O)c2ccccc21
4. COC1=C(NS(=O)(=O)c2ccc(Br)cc2)C(=O)c2ccccc2C1=O
5. O=C1C=C(NS(=O)(=O)c2cccs2)C(=O)c2ccccc21
6. CC(C)N1CCN(C2=C(Nc3ccc(F)cc3)C(=O)c3ccccc3C2=O)CC1

Reply:
1: 1410 nM; 2: 204 nM; 3: 78.7 nM; 4: 4290 nM; 5: 339 nM; 6: 6510 nM

Ask: Write down the reported AC40 (system: SK-MEL-5 CDK2 mRNA, RT-qPCR delta-delta-Ct, overnight) of CN1CCN(C2=C(Nc3ccc(F)cc3F)C(=O)c3ccccc3C2=O)CC1
Reply: 2450 nM
